Provide the reported pIC50 of each item.
# target.system: ATP-dependent translocase ABCB1 (Homo sapiens, UniProt P08183)
# Sequence (P08183 whole entry): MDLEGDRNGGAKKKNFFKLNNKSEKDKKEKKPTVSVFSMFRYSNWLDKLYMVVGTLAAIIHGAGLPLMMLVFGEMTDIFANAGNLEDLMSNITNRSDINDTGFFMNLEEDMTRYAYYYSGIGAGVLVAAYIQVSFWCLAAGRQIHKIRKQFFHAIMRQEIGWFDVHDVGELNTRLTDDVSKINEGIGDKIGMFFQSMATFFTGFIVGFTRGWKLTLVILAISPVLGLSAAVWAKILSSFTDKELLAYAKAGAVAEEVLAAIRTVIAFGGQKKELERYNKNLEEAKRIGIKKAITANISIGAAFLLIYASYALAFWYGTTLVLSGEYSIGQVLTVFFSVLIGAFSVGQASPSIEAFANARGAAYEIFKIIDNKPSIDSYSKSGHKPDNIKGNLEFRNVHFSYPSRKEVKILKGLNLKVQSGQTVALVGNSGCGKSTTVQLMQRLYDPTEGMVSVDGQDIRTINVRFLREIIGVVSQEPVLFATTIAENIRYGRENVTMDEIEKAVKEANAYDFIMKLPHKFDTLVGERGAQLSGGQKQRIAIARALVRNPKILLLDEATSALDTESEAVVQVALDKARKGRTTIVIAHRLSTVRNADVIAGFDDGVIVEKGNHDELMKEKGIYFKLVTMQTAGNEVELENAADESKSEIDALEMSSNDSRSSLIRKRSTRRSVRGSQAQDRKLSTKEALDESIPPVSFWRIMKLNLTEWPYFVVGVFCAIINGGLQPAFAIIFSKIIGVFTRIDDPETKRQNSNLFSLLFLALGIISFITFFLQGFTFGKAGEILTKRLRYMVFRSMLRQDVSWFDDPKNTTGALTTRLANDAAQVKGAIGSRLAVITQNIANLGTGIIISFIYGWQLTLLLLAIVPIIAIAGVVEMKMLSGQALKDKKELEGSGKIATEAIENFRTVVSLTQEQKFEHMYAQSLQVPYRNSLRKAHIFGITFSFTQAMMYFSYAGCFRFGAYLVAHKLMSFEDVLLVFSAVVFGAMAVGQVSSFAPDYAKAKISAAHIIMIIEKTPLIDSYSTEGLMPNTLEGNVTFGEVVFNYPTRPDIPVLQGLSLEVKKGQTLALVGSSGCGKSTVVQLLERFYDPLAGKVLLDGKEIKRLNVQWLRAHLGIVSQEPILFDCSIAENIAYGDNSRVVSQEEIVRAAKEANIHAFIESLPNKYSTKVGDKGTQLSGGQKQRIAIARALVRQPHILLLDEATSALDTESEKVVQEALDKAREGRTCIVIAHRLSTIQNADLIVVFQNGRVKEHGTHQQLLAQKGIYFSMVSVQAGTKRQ
# assay.summary: TP_TRANSPORTER: inhibition of Daunorubicin efflux in NIH-3T3-G185 cells
One number for each entry, as −log10 of the molar value.

Here are 3 compounds together with their reported answers.
compound=CC(=O)S[C@@H]1CC2=CC(=O)CC[C@]2(C)[C@H]2CC[C@@]3(C)[C@@H](CC[C@@]34CCC(=O)O4)[C@H]12 reported_measurement=4.63
compound="COc1ccc(CCN(C)CCCC(C#N)(c2cc(OC)c(OC)c(OC)c2)C(C)C)cc1OC (stereo unspecified)" reported_measurement=5.49
compound=CC(C)[C@@H]1NC(=O)[C@H](C)OC(=O)[C@@H](C(C)C)NC(=O)[C@@H](C(C)C)OC(=O)[C@H](C(C)C)NC(=O)[C@H](C)OC(=O)[C@@H](C(C)C)NC(=O)[C@@H](C(C)C)OC(=O)[C@H](C(C)C)NC(=O)[C@H](C)OC(=O)[C@@H](C(C)C)NC(=O)[C@@H](C(C)C)OC1=O reported_measurement=5.49

Please supply pIC50 for each of the following items, keeping them in order.
1. COc1ccc(-c2cc(=O)c3c(OC)c(OC)c(OC)c(OC)c3o2)cc1OC
2. COC(=O)C1=C(C)NC(C)=C(C(=O)OC)C1c1ccccc1[N+](=O)[O-]

4.94
3.95

Consider the compound COc1ccc(CCNCCCC(C#N)(c2ccc(OC)c(OC)c2)C(C)C)cc1OC (stereo unspecified) and give its measured pIC50.
6.05

Sourced from ChEMBL document CHEMBL2073899
